Data credit: paper PMC3412620

systemTested: human pyridoxal kinase (hPL kinase) (Homo sapiens)
Sequence (O00764 1-312): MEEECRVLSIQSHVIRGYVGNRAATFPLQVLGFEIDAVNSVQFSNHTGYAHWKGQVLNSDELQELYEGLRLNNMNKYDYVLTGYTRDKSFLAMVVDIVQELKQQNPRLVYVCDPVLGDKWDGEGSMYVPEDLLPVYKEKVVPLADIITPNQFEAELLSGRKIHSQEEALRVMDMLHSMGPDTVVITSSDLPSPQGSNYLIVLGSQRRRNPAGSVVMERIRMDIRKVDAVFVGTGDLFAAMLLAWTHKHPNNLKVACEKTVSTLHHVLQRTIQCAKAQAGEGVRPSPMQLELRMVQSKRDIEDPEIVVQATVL
Entries and their Ki values follow.
The reply should contain only the number, in µM.

cpdSmiles: CCCn1c(=O)[nH]c(=O)c2[nH]cnc21
systemTested: human pyridoxal kinase (hPL kinase) (Homo sapiens)
Ki (µM): 228

Now examine the next entry.
Lab note: `Nc1nnc(-c2cccc(Cl)c2Cl)c(N)n1` gave Ki of 56
